Would you kindly list MIC for each of these compounds?
test system: S.aureus (Sa); assay: Broth microdilution MIC against S.aureus (Sa); format: cell-based; conditions: Staphylococcus aureus, CAMHB supplemented with sodium bicarbonate 6.25 mM; read-out: Sa + bicarb 6.25 (MIC)
Where a name gives a salt, the structure may show the parent alone.

Here's what some known entries look like.
INSERT INTO results (compound, target, experimental_result) VALUES
  ('CC(C)(N)C(=O)N1CCN(C(=O)Nc2ccn(-c3ccc4c(c3)OCC(N3CCCC(N)CC3)C4)c(=O)n2)CC1 (stereo not drawn)', 'S.aureus (Sa)', '8 to 32 µg/mL'),
  ('CC(C)(N)C(=O)N1CCN(C(=O)Nc2ccn(-c3ccc4c(c3)CCC(N3CC(N)C3)C4)c(=O)n2)CC1 (stereo not drawn) [Compound 39, Hydrochloride Salt]', 'S.aureus (Sa)', '8 to 32 µg/mL'),
  ('CC(C)(N)C(=O)N1CCN(C(=O)Nc2ccn(-c3ccc4c(c3)CCC(N[C@H]3CC[C@@H](N)C3)C4)c(=O)n2)CC1 (single isomer, unassigned) [Compound 33, Hydrochloride Salt]', 'S.aureus (Sa)', '8 to 32 µg/mL'),
  ('CC(C)(N)C(=O)N1CCN(C(=O)Nc2ccn(-c3ccc4c(c3)OCC(N3CC5CC5(CN)C3)C4)c(=O)n2)CC1 (stereo not drawn) [Compound 23, Hydrochloride Salt]', 'S.aureus (Sa)', '> 32 µg/mL'),
  ('CC(C)(N)C(=O)N1CCN(C(=O)Nc2ccn(-c3ccc4c(c3)CC(N[C@H]3CC[C@H](N)C3)C4)c(=O)n2)CC1 (stereo partly drawn) [Compound 36, Hydrochloride Salt]', 'S.aureus (Sa)', '8 to 32 µg/mL');

**Query** Quick one: MIC for CC(C)(N)C(=O)N1CCN(C(=O)Nc2ccn(-c3ccc4c(c3)CCC(NC[C@H]3C[C@@H](N)C3)C4)c(=O)n2)CC1 (stereo partly drawn) [Compound 32, Hydrochloride Salt] ?
**Result** < 8 µg/mL

The values you see were collected from patent US20230278987A1.
